Entries and their measured viability follow.
- PROCEDURE SUMMARY: reducers of endogenous Her2 protein level, primary screen, SKBR3 breast tumor cells, AlphaScreen, ATP viability (AID 461);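 also: percent of carrier control wells set as 100% viability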
- ASSAY SETUP: 18-24 h, measured here: SKBR3 viability, ATP luminescence, at 10 µM
Lab book: enter the figure in %, no units written.

// solved cases for viability follow
MOLECULE | SCALE UNIT | viability
CCOc1ccc(-n2c(=O)cc(N3CCN(c4ccccc4)CC3)[nH]c2=O)cc1 | % | 94
O=C(c1cccc(Cl)c1)N1CCN(Cc2ccncc2)CC1 | % | 92
Cc1c(C(=O)Nc2cnccn2)oc2ccccc12 | % | 110
Cc1c(C(=O)N2CCCC2)sc(NC(=O)c2cccs2)c1C#N | % | 106
CN(C1CCCCC1)S(=O)(=O)c1ccc(NC(=O)c2ccco2)cc1 | % | 91.5

Enquiry: Name the recorded viability for Cc1ccc(C2N(c3ccc(Cl)c(Cl)c3)C(=O)C3CCCN32)o1 (stereo unspecified) .
Return: 99

Enquiry: Then what about the molecule Cc1ccc(-c2nn3c(=O)c(C)nnc3s2)cc1 ?
Return: 112

Enquiry: Then what about the molecule COc1cccc(CN2CCN(C(=O)c3ccco3)CC2)c1OC ?
Return: 112

Enquiry: Then what about the molecule Cn1c(SCc2nc3ccccc3c(=O)[nH]2)nnc1-c1ccco1 ?
Return: 99.5

Enquiry: Then what about the molecule CSCCC(NC(=O)c1ccco1)C(=O)OC(C)C(=O)NC(=O)NC1CCCCC1 (stereo unspecified) ?
Return: 88

Enquiry: Then what about the molecule C=CCc1c(C)nc(SC)nc1Nc1ccc(C(=O)O)cc1 ?
Return: 106

Enquiry: Then what about the molecule CC(=O)NC(Cc1cc(C)ccc1C)C(=O)N1CCN(C(=O)Nc2ccc(C(C)=O)cc2)CC1 (stereo unspecified) ?
Return: 102

Enquiry: Then what about the molecule Cc1noc(C)c1S(=O)(=O)Nc1c(C)n(C)n(-c2ccccc2)c1=O ?
Return: 108

Enquiry: Then what about the molecule COC(=O)C(C)NC(=O)C12CC3CC(CC(C3)C1)C2 (stereo unspecified) ?
Return: 92

Enquiry: Then what about the molecule O=C1CCc2nc3sc4c(c3c(=O)n2N1)CCCC4 ?
Return: 86.5

Enquiry: Then what about the molecule COc1ccc(CCn2c(=N)c(C#N)cc3c(=O)n4ccccc4nc32)cc1 ?
Return: 95

Enquiry: Then what about the molecule O=C(Cn1nnc(-c2ccc(CN3CCOCC3)cc2)n1)NC1CCCCC1 ?
Return: 108

---

- PROCEDURE SUMMARY: reversal of MRP1-mediated doxorubicin resistance, pilot screen, H69AR cells, doxorubicin co-treatment (AID 601)
- ASSAY SETUP: H69AR cells + 2 uM doxorubicin, CellTiter-Glo, 72 h; measured here: viability with 2 uM doxorubicin; at 10 µM; stronger effect = lower value
ENDPOINT: viability

// solved cases for viability follow
COMPOUND | RESULT
O=C(CN1CCC(NC(=O)c2ccc(F)cc2)CC1)NCc1ccccc1F | 100%
Cc1cccc(Cc2nnc(NC(=O)c3cccc(S(=O)(=O)N4CCOCC4)c3)s2)c1 | 82.2%
CC(C)CCNC(=O)C1CCN(C(=O)N(C)C)CC1 | 93.8%
CS(=O)(=O)Nc1ccc(C(=O)NCc2ccco2)cc1 | 101%
CCOc1ccc(C2/C(=C(/O)c3ccc(OC)cc3)C(=O)C(=O)N2c2cc(C)on2)cc1OC (stereo not given) | 99.7%
COC(=O)C1=CN(C(C)C)C=C(C(=O)OC)C1c1cc2c(cc1Br)OCO2 | 75.9%

Enquiry: Name the recorded viability for O=P(O)(O)c1ccccc1OCCOCCOc1ccccc1P(=O)(O)O .
Return: 86.1%

Enquiry: Then what about the compound CN(C)c1ccc(/C=C/c2ccncc2)cc1 ?
Return: 90.1%

Enquiry: Then what about the compound NC(=O)c1cccc(S(=O)(=O)N2CCCCC2)c1 ?
Return: 96.5%

Enquiry: Then what about the compound COc1cc(C(=O)N2CCC(NC(=O)C(Cc3ccc(C)cc3)NC(C)=O)CC2)cc(OC)c1OC (stereo not given) ?
Return: 90.3%

Enquiry: Then what about the compound CCC1CCCCN1S(=O)(=O)c1ccc(C(=O)Nc2nnc(-c3cccs3)o2)cc1 (stereo not given) ?
Return: 44.9%

---

- PROCEDURE SUMMARY: SK-BR-3 cell growth inhibitors, pilot screen, 24 h, human (AID 572);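 also: compound exposure lasted between 18 and 24 h rather than exactly 24 h; 100% = carrier-treated control wells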
- ASSAY SETUP: SK-BR-3 viability, CellTiter-Glo luminescence, at 10 µM, stronger effect = lower value
Entries and their measured viability follow.
Lab book: enter the figure in %, no units written.

MOLECULE | NUMERIC READOUT
Cn1cnnc1SCC(=O)Nc1ccccc1Sc1ccccc1 | 107
CC(=O)c1cccc(S(=O)(=O)NCC(c2ccco2)N2CCCCC2)c1 (stereo unspecified) | 101
COc1ccc2nc(NC(=O)C(NS(=O)(=O)c3cccs3)C(C)C)sc2c1 (stereo unspecified) | 90.5
N#CC1=C(N)Oc2n[nH]c(-c3cccs3)c2C1c1cccs1 (stereo unspecified) | 96.5
CN(C)S(=O)(=O)c1ccc(S(=O)(=O)Nc2ccc3c(c2)oc2ccccc23)cc1 | 79.5

Now for a further molecule.
Enquiry: Name the recorded viability for COc1ccc(CNc2nc(SCC(=O)NCc3ccco3)nc3ccccc23)cc1 .
Return: 80

---

- PROCEDURE SUMMARY: reversal of MRP1-mediated doxorubicin resistance, pilot screen, H69AR cells, doxorubicin co-treatment (AID 601)
- ASSAY SETUP: H69AR cells, CellTiter-Glo, 72 h; compound alone cytotoxicity; at 10 µM
Entries and their measured viability follow.
Lab book: enter the figure in %, no units written.

MOLECULE | NUMERIC READOUT
CCOC(=O)c1[nH]c(C)c(C(=O)N(C)C)c1C | 95.6

Enquiry: Name the recorded viability for CCOc1ccc(NC(=O)CN(C)S(=O)(=O)c2cccs2)cc1 .
Return: 93.9

Enquiry: Then what about the molecule Cn1c(=O)cc(SCC(=O)N2CCOCC2)c2ccc(Cl)cc21 ?
Return: 93.2

Enquiry: Then what about the molecule Cc1c(Br)c(C(F)(F)F)nn1CC(=O)NCCN1CCOCC1 ?
Return: 96.6

Enquiry: Then what about the molecule O=c1cnnc(NCc2ccccc2)[nH]1 ?
Return: 103

Enquiry: Then what about the molecule O=C(NCC1COc2ccccc2O1)C1CCCN(S(=O)(=O)c2cnc[nH]2)C1 (configuration not stated) ?
Return: 109

Enquiry: Then what about the molecule CCc1ccc(NS(=O)(=O)c2cccs2)cc1 ?
Return: 96

Enquiry: Then what about the molecule O=C(NCc1cccs1)C1CCN(S(=O)(=O)c2cccs2)CC1 ?
Return: 102

Enquiry: Then what about the molecule Cc1c(C(=O)OCC(C)C)[nH]c2c1C(=O)CC(c1ccco1)C2 (configuration not stated) ?
Return: 24.1

Enquiry: Then what about the molecule c1ccc(Cn2nnc3c(N4CCC5(CC4)OCCO5)ncnc32)cc1 ?
Return: 90.7

Enquiry: Then what about the molecule COC(=O)c1cc(Br)c(=O)n(CCC2=CCCCC2)c1 ?
Return: 89.9

Enquiry: Then what about the molecule Cc1oc2nc(SCCCC(=O)NCCCO)nc(N)c2c1C ?
Return: 107

---

- PROCEDURE SUMMARY: reversal of MRP1-mediated doxorubicin resistance, pilot screen, H69AR cells, doxorubicin co-treatment (AID 601)
- ASSAY SETUP: H69AR cells, CellTiter-Glo, 72 h; compound alone cytotoxicity; at 10 µM
Entries and their measured viability follow.
Lab book: enter the figure in %, no units written.

COMPOUND | viability, %
CCOc1ccc(CN2C(=O)c3ccccc3C2C(=O)NCc2cccnc2)cc1 (stereo unspecified) | 98.8

Enquiry: Name the recorded viability for CCOC(=O)C1CCCN(c2c(N3CCN(c4ccccn4)CC3)c(=O)c2=O)C1 (stereo unspecified) .
Return: 102

Enquiry: Then what about the compound CCCCc1ccc(NC(=O)c2c(C)noc2C)cc1 ?
Return: 89.4

Enquiry: Then what about the compound Cc1cccc(N2C(=O)CC(Sc3nc(C)c4c(n3)CCCC4)C2=O)c1 (stereo unspecified) ?
Return: 90.3

Enquiry: Then what about the compound COC(=O)c1sc(NC(=O)c2ccoc2C)nc1C ?
Return: 75.3

Enquiry: Then what about the compound O=C(Cn1cnc2c(oc3ccccc32)c1=O)N1CCN(c2ccccc2)CC1 ?
Return: 84.9

---

Entries and their measured inhibition follow.
- PROCEDURE SUMMARY: 384-well plate pilot, post-Golgi transport modulator project, inhibition of yeast transport mutant growth (AID 636)
- ASSAY SETUP: absorbance 615 nm, about 18 h, stronger effect = higher value
Lab book: enter the figure in %, no units written.

// solved cases for inhibition follow
MOLECULE | NUMERIC READOUT
CCOC(=O)c1cccc(NC(=O)CSc2nnc(-c3cccnc3)n2CC)c1 | -4.67
CCCc1cc(C(N)=O)c(NC(=O)c2ccco2)s1 | -3.29
CC(C)OC(=O)CSc1nnc(Cc2ccccc2)n1Cc1ccco1 | -4.27
Cc1cc2c(cc1C)C(=O)NC(C)(C)C2 | -2.7
COc1ccc(CCNC(=O)C2=COCCO2)cc1 | -6.58

Enquiry: Name the recorded inhibition for Cc1oc(-c2ccccc2)cc1C(N)=O .
Return: -0.79

Enquiry: Then what about the molecule O=C(CN1CCC(NC(=O)c2ccc(F)cc2)CC1)NCc1ccccc1F ?
Return: -5.6

Enquiry: Then what about the molecule CCCCc1n[nH]c2c1C(=O)CC(C)(C)C2 ?
Return: -3.78

Enquiry: Then what about the molecule CCOc1ccc(CSC(CC(=O)O)C(=O)O)cc1 (configuration not stated) ?
Return: -3.29

Enquiry: Then what about the molecule Cc1nnc(SCc2cn3ccsc3n2)n(N)c1=O ?
Return: 0.26

Enquiry: Then what about the molecule COc1ccc(C(=O)c2ccccc2)c(O)c1 ?
Return: -3.33
